Several publications report IC50 on Lysine-specific demethylase 4C (Homo sapiens); those values are gathered here.

Some entries whose results are on file:
| smiles | observable | obs.value |
| --- | --- | --- |
| Oc1nc(Oc2cnn(Cc3ccc(F)cc3)c2)nc2cnccc12 | IC50 | ≤ 100 nM |
| CN(CCn1cnc(-c2cc(C(=O)O)ccn2)c1)CC1CC1 | IC50 | ≤ 100 nM |
| O=C(O)c1ccnc(-n2nccc2OCc2ccc(Br)cc2)c1 | IC50 | < 100 nM |

Request: Give reported IC50 value for `CN(CCn1cnc(-c2cc(C(=O)O)ccn2)c1)Cc1cccc(F)c1`
Response: ≤ 100 nM

Request: Give reported IC50 value for `Cn1cnc(-c2cc(C(=O)O)ccn2)c1-c1ccc(C2(CO)CC2)cc1`
Response: 100 to 1000 nM

Request: Give reported IC50 value for `O=C(O)c1ccnc(-c2cn(CCN3CCCc4cc(Cl)ccc43)cn2)c1`
Response: 100 to 1000 nM

Request: Give reported IC50 value for `COc1ccc(Oc2nc(O)c3ccncc3n2)cc1OC`
Response: 100 to 1000 nM

Request: Give reported IC50 value for `Cn1cnc(-c2cc(C(=O)O)ccn2)c1`
Response: ≤ 100 nM

Request: Give reported IC50 value for `CN(c1ccc2c(c1)CCC[C@H]2CNc1cnccc1C(=O)O)c1ccccn1`
Response: 100 to 1000 nM

---

Several publications report IC50 on Lysine-specific demethylase 4C (Homo sapiens, UniProt Q9H3R0); those values are gathered here.

| compound | target.system | obs.value |
| --- | --- | --- |
| CN(c1ccccc1)c1ccc(Oc2nc(O)c3ccncc3n2)cc1 | Lysine-specific demethylase 4C (Homo sapiens, UniProt Q9H3R0) | 100 to 1000 nM |

Request: Give reported IC50 value for `O=C(O)c1ccncc1Nc1nn(CCN2CCC(F)(F)CC2)c2ccc(F)cc12`
Response: < 100 nM

Request: Give reported IC50 value for `Cc1ccc(COc2ccnn2-c2cc(C(=O)O)ccn2)c(C#N)c1`
Response: 100 to 1000 nM

Request: Give reported IC50 value for `CN(c1ccc(CC(F)(F)F)cc1)c1ccc(Oc2nc(O)c3ccncc3n2)cc1`
Response: 1000 to 10000 nM

Request: Give reported IC50 value for `Cc1cc(C#N)ccc1COc1ccnn1-c1cc(C(=O)O)ccn1`
Response: 100 to 1000 nM

Request: Give reported IC50 value for `O=C(O)c1ccnc(-c2cn(CCN3Cc4ccc(C(F)(F)F)cc4C3)cn2)c1`
Response: ≤ 100 nM

---

Several publications report pIC50 on Lysine-specific demethylase 4C (Homo sapiens, UniProt Q9H3R0); those values are gathered here.
pIC50: −log10 of the molar value.

Some entries whose results are on file:
| compound | pIC50 |
| --- | --- |
| O=C(O)c1ccnc(-n2nccc2OCc2ccc(Cl)c(Cl)c2)c1 | 6.00 to 7.00 |
| CC(C)c1ccc(N(CC(F)(F)F)c2ccc(Oc3nc(O)c4ccncc4n3)cc2)cc1 | 6.00 to 7.00 |

Let us move to another entry and its pIC50.
Request: Give reported pIC50 value for `C[C@H](c1ccccc1)n1cc(Oc2nc(O)c3ccncc3n2)cn1`
Response: ≥ 7.00

---

Several publications report IC50 on Lysine-specific demethylase 4C (Homo sapiens); those values are gathered here.

| compound | IC50 |
| --- | --- |
| O=C(O)c1ccncc1NCC1CCCc2ccc(F)cc21 (stereo not drawn) | 100 to 1000 nM |
| O=C(O)c1ccncc1NC[C@@H]1CCOc2cc(-c3cc(F)ccc3Cl)ccc21 | 100 to 1000 nM |
| Oc1nc(Oc2cnn([C@H]3CCNC3)c2)nc2cnccc12 | ≤ 100 nM |
| CN(c1ccc(C2CCOCC2)cc1)c1ccc2c(c1)CCC[C@H]2CNc1cnccc1C(=O)O | 1000 to 10000 nM |
| CN(CCn1cnc(-c2cc(C(=O)O)ccn2)c1)c1ccccc1 | 100 to 1000 nM |

Request: Give reported IC50 value for `CN1CCCN(c2cccc(N(C)c3ccc(Oc4nc(O)c5ccncc5n4)cc3)c2)CC1`
Response: ≤ 100 nM

Request: Give reported IC50 value for CC(CCN)c1ccc(N(C)c2ccc(Oc3nc(O)c4ccncc4n3)cc2)cc1 (stereo not drawn)
Response: ≤ 100 nM

Request: Give reported IC50 value for `O=C(O)c1ccncc1NC[C@@H]1CCOc2cc(C3(c4ccccc4)CC3)ccc21`
Response: 100 to 1000 nM

Request: Give reported IC50 value for `CCc1ccc(COc2ccnn2-c2cc(C(=O)O)ccn2)c(Cl)c1`
Response: 1000 to 10000 nM

---

Several publications report IC50 on Lysine-specific demethylase 4C (Homo sapiens); those values are gathered here.

| molecule | IC50 |
| --- | --- |
| O=C(O)c1ccncc1NC[C@@H]1CCOc2cc(-c3ccccc3)ccc21 | 100 to 1000 nM |
| CCOc1cc(Cl)ccc1COc1ccnn1-c1cc(C(=O)O)ccn1 | 100 to 1000 nM |

Let us move to another entry and its IC50.
Request: Give reported IC50 value for `CN(c1ccc2c(c1)OCC[C@H]2CNc1cnccc1C(=O)O)c1ccc(C2CC2)cn1`
Response: 100 to 1000 nM

---

Several publications report pIC50 on Lysine-specific demethylase 4C (Homo sapiens, UniProt Q9H3R0); those values are gathered here.
pIC50: −log10 of the molar value.

| compound | pIC50 |
| --- | --- |
| COc1ccc(N(C)c2ccc3c(c2)CCC[C@H]3CNc2cnccc2C(=O)O)cc1 | 6.00 to 7.00 |

Request: Specify pIC50 for CC(CN)c1ccc(N(C)c2ccc(Oc3nc(O)c4ccncc4n3)cc2)cc1 (stereo not drawn) , system Lysine-specific demethylase 4C (Homo sapiens, UniProt Q9H3R0).
Response: ≥ 7.00

Request: Specify pIC50 for `CN(c1ccc(OCC2CC2)cc1)c1ccc2c(c1)OCC[C@H]2CNc1cnccc1C(=O)O` , system Lysine-specific demethylase 4C (Homo sapiens, UniProt Q9H3R0).
Response: 6.00 to 7.00

Request: Specify pIC50 for `Oc1nc(OCC2CCC2)nc2cnccc12` , system Lysine-specific demethylase 4C (Homo sapiens, UniProt Q9H3R0).
Response: 6.00 to 7.00

---

Several publications report IC50 on Lysine-specific demethylase 4C (Homo sapiens, UniProt Q9H3R0); those values are gathered here.

Some entries whose results are on file:
| compound | obs.value |
| --- | --- |
| CC(C)Oc1ccc2c(c1)CCCC2CNc1cnccc1C(=O)O (stereo not shown) | 0.1 to 1 µM |
| N#CCC(=O)N1CC[C@H](n2cc(Oc3nc(O)c4ccncc4n3)cn2)C1 | ≤ 0.1 µM |
| CC(C)c1ccc(Nc2ccc(Oc3nc(O)c4ccncc4n3)cc2)cc1 | ≤ 0.1 µM |
| Cn1cnc(-c2cc(-c3nn[nH]n3)ccn2)c1-c1ccc(F)cc1OCc1ccccc1 | 1 to 10 µM |

Request: Specify IC50 for `O=C(O)c1ccnc(-n2nccc2OCc2ccc(F)cc2)c1` , system Lysine-specific demethylase 4C (Homo sapiens, UniProt Q9H3R0).
Response: < 0.1 µM

Request: Specify IC50 for `COc1ccccc1N(C)c1ccc2c(c1)CCC[C@H]2CNc1cnccc1C(=O)O` , system Lysine-specific demethylase 4C (Homo sapiens, UniProt Q9H3R0).
Response: 0.1 to 1 µM

Request: Specify IC50 for `CN(CCn1cnc(-c2cc(C(=O)O)ccn2)c1)Cc1ccc(F)cc1` , system Lysine-specific demethylase 4C (Homo sapiens, UniProt Q9H3R0).
Response: ≤ 0.1 µM

Request: Specify IC50 for `Cc1cccc(N(C)c2ccc3c(c2)OCC[C@H]3CNc2cnccc2C(=O)O)n1` , system Lysine-specific demethylase 4C (Homo sapiens, UniProt Q9H3R0).
Response: 0.1 to 1 µM

Request: Specify IC50 for `Oc1nc(Oc2cnn(Cc3ccccc3)c2)nc2cnccc12` , system Lysine-specific demethylase 4C (Homo sapiens, UniProt Q9H3R0).
Response: ≤ 0.1 µM

Request: Specify IC50 for CNCCC(C)c1ccc(N(C)c2ccc(Oc3nc(O)c4ccncc4n3)cc2)cc1 (stereo not shown) , system Lysine-specific demethylase 4C (Homo sapiens, UniProt Q9H3R0).
Response: ≤ 0.1 µM

Request: Specify IC50 for `Oc1nc(Oc2cnn([C@H]3CCCNC3)c2)nc2cnccc12` , system Lysine-specific demethylase 4C (Homo sapiens, UniProt Q9H3R0).
Response: ≤ 0.1 µM

Request: Specify IC50 for `N#CCC(=O)N1CCC[C@H](n2cc(Oc3nc(O)c4ccncc4n3)cn2)C1` , system Lysine-specific demethylase 4C (Homo sapiens, UniProt Q9H3R0).
Response: ≤ 0.1 µM

Request: Specify IC50 for `O=C(c1cc(F)cc(Oc2nc(O)c3ccncc3n2)c1)N1CCOCC1` , system Lysine-specific demethylase 4C (Homo sapiens, UniProt Q9H3R0).
Response: 0.1 to 1 µM
